Assay: Ex vivo biodistribution screen of 111In-labeled DOTA-TATE derivatives in normal mice
Set-up: species or system athymic nude mice
Settings: athymic nude, mouse, lung, iv, 1 ug per mouse, total radioactivity, normal athymic nude mice, 2 h post-injection, i.v. 1 μg, ex vivo, mean, n = 2–4, read-out: Lung uptake
Positions of bridges follow the written chain, without caps; N, C: chain ends. Non-standard residues stand in square brackets, D forms with d. Residues, ends and D or L forms follow the SMILES beside them. *: point of attachment. DOTA = O=C(O)CN1CCN(CC(=O)O)CCN(CC(=O)*)CCN(CC(=O)O)CC1

[
  {
    "Molecule": "C[C@@H](O)[C@H](NC(=O)[C@@H]1CSSC[C@H](NC(=O)[C@@H](Cc2ccccc2)NC(=O)CNC(=O)[C@H](CC(=O)O)NC(=O)[C@H](CC(=O)O)NC(=O)[C@H](CC(=O)O)NC(=O)CNC(=O)CN2CCN(CC(=O)O)CCN(CC(=O)O)CCN(CC(=O)O)CC2)C(=O)N[C@@H](Cc2ccc(O)cc2)C(=O)N[C@H](Cc2c[nH]c3ccccc23)C(=O)N[C@@H](CCCCN)C(=O)N[C@@H]([C@@H](C)O)C(=O)N1)C(=O)O [^111In-DOTA-GDDDG-TATE, metal not drawn] ({DOTA}-GDDDG[dF]CY[dW]KTCT-OH; disulfide 7-12)",
    "Measure unit": "%ID/g",
    "tissue uptake at 2 h": 0.25
  },
  {
    "Molecule": "C[C@@H](O)[C@H](NC(=O)[C@@H]1CSSC[C@H](NC(=O)[C@@H](Cc2ccccc2)NC(=O)CN2CCN(CC(=O)O)CCN(CC(=O)O)CCN(CC(=O)O)CC2)C(=O)N[C@@H](Cc2ccc(O)cc2)C(=O)N[C@H](Cc2c[nH]c3ccccc23)C(=O)N[C@@H](CCCCN)C(=O)N[C@@H]([C@@H](C)O)C(=O)N1)C(=O)O [^111In-DOTA-TATE, metal not drawn, reference compound]",
    "Measure unit": "%ID/g",
    "tissue uptake at 2 h": 0.18
  },
  {
    "Molecule": "C[C@@H](O)[C@H](NC(=O)[C@@H]1CSSC[C@H](NC(=O)[C@@H](Cc2ccccc2)NC(=O)CCCC(=O)Nc2cc(COC(=O)N(C)CCNC(=O)CN3CCN(CC(=O)O)CCN(CC(=O)O)CCN(CC(=O)O)CC3)ccc2O[C@@H]2O[C@H](C(=O)O)[C@@H](O)[C@H](O)[C@H]2O)C(=O)N[C@@H](Cc2ccc(O)cc2)C(=O)N[C@H](Cc2c[nH]c3ccccc23)C(=O)N[C@@H](CCCCN)C(=O)N[C@@H]([C@@H](C)O)C(=O)N1)C(=O)O [^111In-DOTA-GlcA-TATE, metal not drawn]",
    "Measure unit": "%ID/g",
    "tissue uptake at 2 h": 0.19
  }
]

====

Assay: Ex vivo biodistribution screen of 111In-labeled DOTA-TATE derivatives in normal mice
Design: species or system athymic nude mice
Settings: normal mice, 2 h post-injection, 111In-DOTA-TATE set as 100%
Positions of bridges follow the written chain, without caps; N, C: chain ends. Non-standard residues stand in square brackets, D forms with d. Residues, ends and D or L forms follow the SMILES beside them. *: point of attachment. DOTA = O=C(O)CN1CCN(CC(=O)O)CCN(CC(=O)*)CCN(CC(=O)O)CC1
Would you please tag the item true (1) when its Relative kidney retention, % rel. to DOTA-TATE is 300% or above, and false (0) when it is below?

[
  {
    "Compound": "C[C@@H](O)[C@H](NC(=O)[C@@H]1CSSC[C@H](NC(=O)[C@@H](Cc2ccccc2)NC(=O)CNC(=O)[C@H](CC(=O)O)NC(=O)[C@H](CC(=O)O)NC(=O)[C@H](CC(=O)O)NC(=O)CNC(=O)CN2CCN(CC(=O)O)CCN(CC(=O)O)CCN(CC(=O)O)CC2)C(=O)N[C@@H](Cc2ccc(O)cc2)C(=O)N[C@H](Cc2c[nH]c3ccccc23)C(=O)N[C@@H](CCCCN)C(=O)N[C@@H]([C@@H](C)O)C(=O)N1)C(=O)O [^111In-DOTA-GDDDG-TATE, metal not drawn] ({DOTA}-GDDDG[dF]CY[dW]KTCT-OH; disulfide 7-12)",
    "Cat": "false (0)"
  },
  {
    "Compound": "C[C@@H](O)[C@H](NC(=O)[C@@H]1CSSC[C@H](NC(=O)[C@@H](Cc2ccccc2)NC(=O)[C@@H](Cc2ccc(O)cc2)NC(=O)CNC(=O)CN2CCN(CC(=O)O)CCN(CC(=O)O)CCN(CC(=O)O)CC2)C(=O)N[C@@H](Cc2ccc(O)cc2)C(=O)N[C@H](Cc2c[nH]c3ccccc23)C(=O)N[C@@H](CCCCN)C(=O)N[C@@H]([C@@H](C)O)C(=O)N1)C(=O)O [^111In-DOTA-GY*-TATE, metal not drawn] ({DOTA}-G[dY][dF]CY[dW]KTCT-OH; disulfide 4-9)",
    "Cat": "true (1)"
  },
  {
    "Compound": "CSCC[C@H](NC(=O)CN1CCN(CC(=O)O)CCN(CC(=O)O)CCN(CC(=O)O)CC1)C(=O)N[C@H](C(=O)N[C@@H](CCCCN)C(=O)N[C@H](Cc1ccccc1)C(=O)N[C@H]1CSSC[C@@H](C(=O)N[C@H](C(=O)O)[C@@H](C)O)NC(=O)[C@H]([C@@H](C)O)NC(=O)[C@H](CCCCN)NC(=O)[C@@H](Cc2c[nH]c3ccccc23)NC(=O)[C@H](Cc2ccc(O)cc2)NC1=O)C(C)C [^111In-DOTA-MVK-TATE, metal not drawn] ({DOTA}-MVK[dF]CY[dW]KTCT-OH; disulfide 5-10)",
    "Cat": "true (1)"
  },
  {
    "Compound": "C[C@@H](O)[C@H](NC(=O)[C@@H]1CSSC[C@H](NC(=O)[C@@H](Cc2ccccc2)NC(=O)CCCC(=O)Nc2cc(COC(=O)N(C)CCNC(=O)CN3CCN(CC(=O)O)CCN(CC(=O)O)CCN(CC(=O)O)CC3)ccc2O[C@@H]2O[C@H](C(=O)O)[C@@H](O)[C@H](O)[C@H]2O)C(=O)N[C@@H](Cc2ccc(O)cc2)C(=O)N[C@H](Cc2c[nH]c3ccccc23)C(=O)N[C@@H](CCCCN)C(=O)N[C@@H]([C@@H](C)O)C(=O)N1)C(=O)O [^111In-DOTA-GlcA-TATE, metal not drawn]",
    "Cat": "false (0)"
  },
  {
    "Compound": "CSCC[C@H](NC(=O)CN1CCN(CC(=O)O)CCN(CC(=O)O)CCN(CC(=O)O)CC1)C(=O)N[C@H](C(=O)N[C@@H](CCCCNC(=O)CCCC(=O)N[C@H](Cc1ccccc1)C(=O)N[C@H]1CSSC[C@@H](C(=O)N[C@H](C(=O)O)[C@@H](C)O)NC(=O)[C@H]([C@@H](C)O)NC(=O)[C@H](CCCCN)NC(=O)[C@@H](Cc2c[nH]c3ccccc23)NC(=O)[C@H](Cc2ccc(O)cc2)NC1=O)C(=O)O)C(C)C [^111In-DOTA-MVK(ε)-TATE, metal not drawn]",
    "Cat": "false (0)"
  }
]

====

Here, each record is paired with measured tissue uptake at 2 h data.
Test: Ex vivo biodistribution screen of 111In-labeled DOTA-TATE derivatives in normal mice
Design: species or system athymic nude mice
Conditions: athymic nude, mouse, intestine, iv, 1 ug per mouse, total radioactivity, normal athymic nude mice, 2 h post-injection, i.v. 1 μg, ex vivo, mean, n = 2–4, read-out: Intestine uptake
Positions of bridges follow the written chain, without caps; N, C: chain ends. Non-standard residues stand in square brackets, D forms with d. Residues, ends and D or L forms follow the SMILES beside them. *: point of attachment. DOTA = O=C(O)CN1CCN(CC(=O)O)CCN(CC(=O)*)CCN(CC(=O)O)CC1

[
  {
    "Compound": "C[C@@H](O)[C@H](NC(=O)[C@@H]1CSSC[C@H](NC(=O)[C@@H](Cc2ccccc2)NC(=O)[C@H](Cc2ccc(O)cc2)NC(=O)CNC(=O)CN2CCN(CC(=O)O)CCN(CC(=O)O)CCN(CC(=O)O)CC2)C(=O)N[C@@H](Cc2ccc(O)cc2)C(=O)N[C@H](Cc2c[nH]c3ccccc23)C(=O)N[C@@H](CCCCN)C(=O)N[C@@H]([C@@H](C)O)C(=O)N1)C(=O)O [^111In-DOTA-GY-TATE, metal not drawn] ({DOTA}-GY[dF]CY[dW]KTCT-OH; disulfide 4-9)",
    "tissue uptake at 2 h": "0.74 %ID/g"
  },
  {
    "Compound": "C[C@@H](O)[C@H](NC(=O)[C@@H]1CSSC[C@H](NC(=O)[C@@H](Cc2ccccc2)NC(=O)CNC(=O)[C@H](CC(=O)O)NC(=O)[C@H](CC(=O)O)NC(=O)[C@H](CC(=O)O)NC(=O)CNC(=O)CN2CCN(CC(=O)O)CCN(CC(=O)O)CCN(CC(=O)O)CC2)C(=O)N[C@@H](Cc2ccc(O)cc2)C(=O)N[C@H](Cc2c[nH]c3ccccc23)C(=O)N[C@@H](CCCCN)C(=O)N[C@@H]([C@@H](C)O)C(=O)N1)C(=O)O [^111In-DOTA-GDDDG-TATE, metal not drawn] ({DOTA}-GDDDG[dF]CY[dW]KTCT-OH; disulfide 7-12)",
    "tissue uptake at 2 h": "0.11 %ID/g"
  },
  {
    "Compound": "CSCC[C@H](NC(=O)CN1CCN(CC(=O)O)CCN(CC(=O)O)CCN(CC(=O)O)CC1)C(=O)N[C@H](C(=O)N[C@@H](CCCCNC(=O)CCCC(=O)N[C@H](Cc1ccccc1)C(=O)N[C@H]1CSSC[C@@H](C(=O)N[C@H](C(=O)O)[C@@H](C)O)NC(=O)[C@H]([C@@H](C)O)NC(=O)[C@H](CCCCN)NC(=O)[C@@H](Cc2c[nH]c3ccccc23)NC(=O)[C@H](Cc2ccc(O)cc2)NC1=O)C(=O)O)C(C)C [^111In-DOTA-MVK(ε)-TATE, metal not drawn]",
    "tissue uptake at 2 h": "0.83 %ID/g"
  },
  {
    "Compound": "C[C@@H](O)[C@H](NC(=O)[C@@H]1CSSC[C@H](NC(=O)[C@@H](Cc2ccccc2)NC(=O)CN2CCN(CC(=O)O)CCN(CC(=O)O)CCN(CC(=O)O)CC2)C(=O)N[C@@H](Cc2ccc(O)cc2)C(=O)N[C@H](Cc2c[nH]c3ccccc23)C(=O)N[C@@H](CCCCN)C(=O)N[C@@H]([C@@H](C)O)C(=O)N1)C(=O)O [^111In-DOTA-TATE, metal not drawn, reference compound]",
    "tissue uptake at 2 h": "0.51 %ID/g"
  },
  {
    "Compound": "CSCC[C@H](NC(=O)CN1CCN(CC(=O)O)CCN(CC(=O)O)CCN(CC(=O)O)CC1)C(=O)N[C@H](C(=O)N[C@@H](CCCCN)C(=O)N[C@H](Cc1ccccc1)C(=O)N[C@H]1CSSC[C@@H](C(=O)N[C@H](C(=O)O)[C@@H](C)O)NC(=O)[C@H]([C@@H](C)O)NC(=O)[C@H](CCCCN)NC(=O)[C@@H](Cc2c[nH]c3ccccc23)NC(=O)[C@H](Cc2ccc(O)cc2)NC1=O)C(C)C [^111In-DOTA-MVK-TATE, metal not drawn] ({DOTA}-MVK[dF]CY[dW]KTCT-OH; disulfide 5-10)",
    "tissue uptake at 2 h": "0.78 %ID/g"
  },
  {
    "Compound": "C[C@@H](O)[C@H](NC(=O)[C@@H]1CSSC[C@H](NC(=O)[C@@H](Cc2ccccc2)NC(=O)[C@@H](Cc2ccc(O)cc2)NC(=O)CNC(=O)CN2CCN(CC(=O)O)CCN(CC(=O)O)CCN(CC(=O)O)CC2)C(=O)N[C@@H](Cc2ccc(O)cc2)C(=O)N[C@H](Cc2c[nH]c3ccccc23)C(=O)N[C@@H](CCCCN)C(=O)N[C@@H]([C@@H](C)O)C(=O)N1)C(=O)O [^111In-DOTA-GY*-TATE, metal not drawn] ({DOTA}-G[dY][dF]CY[dW]KTCT-OH; disulfide 4-9)",
    "tissue uptake at 2 h": "0.63 %ID/g"
  }
]
